experimental.system: S. aureus AgrC in group-I (Staphylococcus aureus)
experimental.details: AgrC inhibition YFP reporter gene assay, S. aureus group-I (AH1677)
Assay type: cell-based
measurement.setup: read-out: IC50 Group-I; Table 3, against S. aureus AgrC
Positions of bridges follow the written chain, without caps; N, C: chain ends. Non-standard residues stand in square brackets, D forms with d. Residues, ends and D or L forms follow the SMILES beside them. Phe(3-Cl) = N[C@@H](Cc1cccc(Cl)c1)C(=O)O; Phe(4-Cl) = N[C@@H](Cc1ccc(Cl)cc1)C(=O)O; Phe(3-F) = N[C@@H](Cc1cccc(F)c1)C(=O)O; Cha = N[C@@H](CC1CCCCC1)C(=O)O; AEEA = NCCOCCOCC(=O)O; Aoc = NCCCCCCCC(=O)O
parameter: IC50

compound	endpoint.value
CC(=O)N[C@H]1CSC(=O)[C@H](Cc2cccc(F)c2)NC(=O)[C@H](Cc2ccccc2)NC(=O)COCCOCCNC1=O [n7OF3fF] (Ac-C[AEEA]F[Phe(3-F)]; thioester 1-C)	40 nM
CC(=O)N[C@H]1CSC(=O)[C@H](Cc2ccccc2)NC(=O)[C@H](CC2CCCCC2)NC(=O)COCCOCCNC1=O [n7OChaF] (Ac-C[AEEA][Cha]F; thioester 1-C)	998 nM
CC(=O)N[C@H]1CSC(=O)[C@H](Cc2cccc(F)c2)NC(=O)[C@H](CC2CCCCC2)NC(=O)COCCOCCNC1=O [n7OCha3fF] (Ac-C[AEEA][Cha][Phe(3-F)]; thioester 1-C)	109 nM
CC(=O)N[C@H]1CSC(=O)[C@H](Cc2cccc(F)c2)NC(=O)[C@H](CC2CCCCC2)NC(=O)CCCCCCCNC1=O [n7Cha3fF] (Ac-C[Aoc][Cha][Phe(3-F)]; thioester 1-C)	429 nM
CC(=O)N[C@H]1CSC(=O)[C@H](Cc2cccc(Cl)c2)NC(=O)[C@H](Cc2ccccc2)NC(=O)COCCOCCNC1=O [n7OF3clF] (Ac-C[AEEA]F[Phe(3-Cl)]; thioester 1-C)	225 nM
CC(=O)N[C@H]1CSC(=O)[C@H](Cc2ccc(Cl)cc2)NC(=O)[C@H](Cc2ccccc2)NC(=O)COCCOCCNC1=O [n7OF4clF] (Ac-C[AEEA]F[Phe(4-Cl)]; thioester 1-C)	2590 nM
CC(=O)N[C@H]1CSC(=O)[C@H](Cc2ccccc2)NC(=O)[C@H](Cc2ccccc2)NC(=O)COCCOCCNC1=O [n7OFF] (Ac-C[AEEA]FF; thioester 1-C)	181 nM

====

experimental.system: S. aureus AgrC in group-I (Staphylococcus aureus, UniProt A0A0H2XKA3)
experimental.details: AgrC inhibition YFP reporter gene assay, S. aureus group-I (AH1677)
Assay type: cell-based
measurement.setup: group-I; 10 μM where stated; YFP fluorescence relative to 1% DMSO control
Positions of bridges follow the written chain, without caps; N, C: chain ends. Non-standard residues stand in square brackets, D forms with d. Residues, ends and D or L forms follow the SMILES beside them. Dap = NC[CH](N)C(=O)O; Aoc = NCCCCCCCC(=O)O
parameter: AgrC activity, preliminary screening

compound	experimental.system	endpoint.value
CC(=O)N[C@H]1CNC(=O)[C@H](Cc2ccccc2)NC(=O)[C@H](Cc2ccccc2)NC(=O)CCCCCCCCNC1=O [n8FF amide]	S. aureus AgrC in group-I (Staphylococcus aureus, UniProt A0A0H2XKA3)	far less active
CC(=O)NC1CNC(=O)C(Cc2ccccc2)NC(=O)C(Cc2ccccc2)NC(=O)CCCCCCCNC1=O (centres unmarked) [n7FF amide] (Ac-[Dap][Aoc]FF; lactam 1-C; configuration not given here)	S. aureus AgrC in group-I (Staphylococcus aureus, UniProt A0A0H2XKA3)	far less active

====

List of log10(IC50) values.
experimental.system: S. aureus AgrC in group-I (Staphylococcus aureus, UniProt A0A0H2XKA3)
experimental.details: AgrC inhibition YFP reporter gene assay, S. aureus group-I (AH1677)
Format: cell-based
measurement.setup: read-out: Group-I IC50, 95% CI; YFP reporter strain, 24 h; value (95% CI)
Positions of bridges follow the written chain, without caps; N, C: chain ends. Non-standard residues stand in square brackets, D forms with d. Residues, ends and D or L forms follow the SMILES beside them. AEEA = NCCOCCOCC(=O)O; Dap = NC[CH](N)C(=O)O; Aoc = NCCCCCCCC(=O)O
parameter: log10(IC50) (log10 of the value in nM)

compound	log10(IC50)
CC(=O)N[C@H]1CSC(=O)[C@H](Cc2ccccc2)NC(=O)[C@H](Cc2ccccc2)NC(=O)CCCCCCCNC1=O [n7FF] (Ac-C[Aoc]FF; thioester 1-C)	2.53
CC(=O)NC1CSC(=O)C(Cc2ccccc2)NC(=O)C(Cc2ccccc2)NC(=O)CCCCCCCCNC1=O (stereo not drawn) [n8FF]	2.67
CC(=O)N[C@H]1CSC(=O)[C@H](Cc2ccccc2)NC(=O)[C@H](Cc2ccccc2)NC(=O)COCCOCCNC1=O [n7OFF] (Ac-C[AEEA]FF; thioester 1-C)	2.26
CC(=O)NC1CNC(=O)C(Cc2ccccc2)NC(=O)C(Cc2ccccc2)NC(=O)CCCCCCCNC1=O (stereo not drawn) [n7FF amide] (Ac-[Dap][Aoc]FF; lactam 1-C; configuration not given here)	3.60
CC(=O)N[C@H]1CNC(=O)[C@H](Cc2ccccc2)NC(=O)[C@H](Cc2ccccc2)NC(=O)CCCCCCCCNC1=O [n8FF amide]	3.68

====

Reported pIC50 values are given for each entry in this list.
experimental.system: S. aureus AgrC in group-III (Staphylococcus aureus, UniProt O33590)
experimental.details: AgrC inhibition YFP reporter gene assay, S. aureus group-III (AH1747)
Type: cell-based
measurement.setup: read-out: Group-III IC50, 95% CI; YFP reporter strain, 24 h; value (95% CI)
Experimental: Reporter Gene Assays: The peptidomimetics were assayed for AgrC I-IV inhibition using the four YFP reporter strains listed in Table 1. Peptide stock solutions were diluted with DMSO in serial dilutions, and 2 μL of the diluted solution was added to each of the wells in a black, clear-bottom 96-well microtiter plate (Costar). […] Fluorescence (excitation 500 nm/emission 540 nm) and optical density at 600 nm (OD600) of each well were then recorded using a BioTek Synergy 2 plate reader. […]
pIC50: −log10 of the molar value. Positions of bridges follow the written chain, without caps; N, C: chain ends. Non-standard residues stand in square brackets, D forms with d. Residues, ends and D or L forms follow the SMILES beside them. AEEA = NCCOCCOCC(=O)O; Dap = NC[CH](N)C(=O)O; Aoc = NCCCCCCCC(=O)O
parameter: pIC50

molecule	experimental.system	reading.qualifier	endpoint.value
CC(=O)N[C@H]1CSC(=O)[C@H](Cc2ccccc2)NC(=O)[C@H](Cc2ccccc2)NC(=O)CCCCCCCNC1=O [n7FF] (Ac-C[Aoc]FF; thioester 1-C)	S. aureus AgrC in group-III (Staphylococcus aureus, UniProt O33590)	=	7.46
CC(=O)NC1CNC(=O)C(Cc2ccccc2)NC(=O)C(Cc2ccccc2)NC(=O)COCCOCCNC1=O (stereo not drawn) [n7OFF amide] (Ac-[Dap][AEEA]FF; lactam 1-C; configuration not given here)	S. aureus AgrC in group-III (Staphylococcus aureus, UniProt O33590)	<	5.00
CC(=O)N[C@H]1CSC(=O)[C@H](Cc2ccccc2)NC(=O)[C@H](Cc2ccccc2)NC(=O)COCCOCCNC1=O [n7OFF] (Ac-C[AEEA]FF; thioester 1-C)	S. aureus AgrC in group-III (Staphylococcus aureus, UniProt O33590)	=	6.48

====

experimental.system: S. aureus AgrC in group-II (Staphylococcus aureus)
Sequence (O33587 entry or part of it): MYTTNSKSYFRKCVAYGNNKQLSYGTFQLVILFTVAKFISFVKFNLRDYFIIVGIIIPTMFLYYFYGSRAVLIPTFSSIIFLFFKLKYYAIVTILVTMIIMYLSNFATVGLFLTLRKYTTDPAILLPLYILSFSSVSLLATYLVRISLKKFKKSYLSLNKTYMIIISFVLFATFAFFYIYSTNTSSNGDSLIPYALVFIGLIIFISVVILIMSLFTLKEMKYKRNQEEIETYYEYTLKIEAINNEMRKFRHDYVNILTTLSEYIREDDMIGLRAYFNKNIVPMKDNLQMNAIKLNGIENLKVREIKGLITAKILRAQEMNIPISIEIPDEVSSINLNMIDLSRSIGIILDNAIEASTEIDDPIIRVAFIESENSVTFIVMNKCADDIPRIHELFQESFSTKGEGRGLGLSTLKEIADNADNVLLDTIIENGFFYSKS
experimental.details: AgrC inhibition YFP reporter gene assay, S. aureus group-II (AH430)
Format: cell-based
measurement.setup: read-out: Group-II IC50, 95% CI; YFP reporter strain, 24 h; value (95% CI)
Positions of bridges follow the written chain, without caps; N, C: chain ends. Non-standard residues stand in square brackets, D forms with d. Residues, ends and D or L forms follow the SMILES beside them. AEEA = NCCOCCOCC(=O)O; Dap = NC[CH](N)C(=O)O; Aoc = NCCCCCCCC(=O)O
Just a reminder that ties go to FALSE: only IC50 strictly below 500 nM counts as TRUE.

molecule	experimental.system	category
CC(=O)N[C@H]1CNC(=O)[C@H](Cc2ccccc2)NC(=O)[C@H](Cc2ccccc2)NC(=O)CCCCCCCCNC1=O [n8FF amide]	S. aureus AgrC in group-II (Staphylococcus aureus)	FALSE
CC(=O)NC1CNC(=O)C(Cc2ccccc2)NC(=O)C(Cc2ccccc2)NC(=O)COCCOCCNC1=O (stereo not drawn) [n7OFF amide] (Ac-[Dap][AEEA]FF; lactam 1-C; configuration not given here)	S. aureus AgrC in group-II (Staphylococcus aureus)	FALSE
CC(=O)NC1CSC(=O)C(Cc2ccccc2)NC(=O)C(Cc2ccccc2)NC(=O)CCCCCCCCNC1=O (stereo not drawn) [n8FF]	S. aureus AgrC in group-II (Staphylococcus aureus)	TRUE
CC(=O)N[C@H]1CSC(=O)[C@H](Cc2ccccc2)NC(=O)[C@H](Cc2ccccc2)NC(=O)COCCOCCNC1=O [n7OFF] (Ac-C[AEEA]FF; thioester 1-C)	S. aureus AgrC in group-II (Staphylococcus aureus)	FALSE
CC(=O)NC1CNC(=O)C(Cc2ccccc2)NC(=O)C(Cc2ccccc2)NC(=O)CCCCCCCNC1=O (stereo not drawn) [n7FF amide] (Ac-[Dap][Aoc]FF; lactam 1-C; configuration not given here)	S. aureus AgrC in group-II (Staphylococcus aureus)	FALSE
